Target: HSL (Homo sapiens)
Experiment: TEST 3180.2 HSL: percent inhibition at 10 μM, 3H-Triolein lipid emulsion
Assay type: biochemical
Details: 10 μM concentration; percent activity relative to an un-inhibited sample; 30 min preincubation, 30 min reaction at 25° C.; read-out: TEST 3180.2 HSL Activity (%)
assayReadout: activity at 10 µM (%)
Write the answer as a number in %, unit excluded.

N#Cc1ccc(B(O)O)s1	49

Given the entry "CC(=O)c1ccc(B(O)O)s1" , report its measured activity at 10 µM. 68

Another molecule to check: "OB(O)c1ccccc1Cl" 86

Another molecule to check: "CC(=O)Nc1ccc(B2OC(C)(C)C(C)(C)O2)cc1" 86

* * *

Collected TEST 3180.2 HSL Activity (%) values appear next to each entry.
Target: HSL (Homo sapiens, UniProt Q05469)
Sequence (Q05469 whole entry, species assumed): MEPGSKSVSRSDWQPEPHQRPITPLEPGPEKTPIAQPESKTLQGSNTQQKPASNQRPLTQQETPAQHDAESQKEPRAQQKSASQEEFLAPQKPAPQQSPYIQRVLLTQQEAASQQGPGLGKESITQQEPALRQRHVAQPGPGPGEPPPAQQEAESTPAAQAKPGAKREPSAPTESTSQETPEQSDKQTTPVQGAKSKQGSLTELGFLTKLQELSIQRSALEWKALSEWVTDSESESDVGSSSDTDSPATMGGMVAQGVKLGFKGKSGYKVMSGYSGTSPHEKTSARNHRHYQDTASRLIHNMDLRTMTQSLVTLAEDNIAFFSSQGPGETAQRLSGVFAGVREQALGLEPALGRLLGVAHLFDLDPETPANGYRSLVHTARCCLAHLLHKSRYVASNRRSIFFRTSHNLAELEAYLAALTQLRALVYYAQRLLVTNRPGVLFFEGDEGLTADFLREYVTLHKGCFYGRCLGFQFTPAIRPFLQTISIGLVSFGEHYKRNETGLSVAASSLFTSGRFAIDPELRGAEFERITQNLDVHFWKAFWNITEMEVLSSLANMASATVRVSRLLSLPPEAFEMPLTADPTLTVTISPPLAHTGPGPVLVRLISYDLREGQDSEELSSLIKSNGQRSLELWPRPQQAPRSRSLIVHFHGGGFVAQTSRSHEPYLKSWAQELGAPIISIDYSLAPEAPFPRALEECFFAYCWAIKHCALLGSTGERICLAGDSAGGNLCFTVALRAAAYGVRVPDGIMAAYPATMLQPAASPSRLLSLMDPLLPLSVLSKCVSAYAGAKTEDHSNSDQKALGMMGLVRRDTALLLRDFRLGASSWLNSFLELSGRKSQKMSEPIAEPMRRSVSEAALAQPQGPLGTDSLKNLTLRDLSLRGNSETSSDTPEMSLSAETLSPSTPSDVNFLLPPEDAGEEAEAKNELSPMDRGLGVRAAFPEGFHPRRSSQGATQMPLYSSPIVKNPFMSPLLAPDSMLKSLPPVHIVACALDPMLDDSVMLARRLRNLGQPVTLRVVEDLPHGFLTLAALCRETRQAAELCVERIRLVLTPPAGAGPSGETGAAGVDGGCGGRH
Assay: TEST 3180.2 HSL: percent inhibition at 10 μM, 3H-Triolein lipid emulsion
Format: biochemical
Settings: 10 μM concentration; percent activity relative to an un-inhibited sample; 30 min preincubation, 30 min reaction at 25° C.
Write the answer as a number in %, unit excluded.

The cases that follow already have their TEST 3180.2 HSL Activity (%) on record.
CC1(C)OB(c2csc([N+](=O)[O-])c2)OC1(C)C [Example 82]	96
COC1OC2COB(c3ccccc3)OC2C(O)C1O (stereo not shown) [Example 78]	82
OB(O)c1ccc(OCc2ccccc2)c(F)c1 [Example 62, 3-FLUORO-4-BENZYLOXYPHENYL)BORONIC ACID]	93

Given the entry CC1(C)OB(c2ccsc2[Si](C)(C)C)OC1(C)C [Example 81] , report its measured TEST 3180.2 HSL Activity (%). 85

* * *

Biological target: hormone sensitive lipase (Homo sapiens, UniProt Q05469)
Sequence (Q05469 whole entry, species assumed): as above
Assay: TEST 3190.1 HSL-FL: percent inhibition of hormone sensitive lipase at 10 μM, fluorochrome-labeled triacylglyceride emulsion
Assay type: biochemical
Conditions: 10 μM sample concentration; percent activity relative to a non-inhibited sample; 30 min preincubation 25° C., 120 min at 37° C.
param class (str): category from activity at 10 µM; see ranges bucket 1 (below 30%), bucket 2 (30% to below 40%), bucket 3 (40% or more)

CC1(C)OB(c2cccc(C(F)(F)F)c2)OC1(C)C	bucket 1
CC1(C)COB(c2cc(F)c(F)c(F)c2)OC1	bucket 3
Cc1csc(B2OC(C)(C)C(C)(C)O2)c1	bucket 3

Into which category would you place "CC1(C)OB(c2cccc(OC(F)(F)F)c2)OC1(C)C" ? bucket 1

Another compound to check: "CC1(C)COB(c2ccc(F)c(Cl)c2)OC1" bucket 2

Another compound to check: "Fc1cc(F)cc(B2OCCNCCO2)c1" bucket 2

Another compound to check: "OB(O)c1ccc2[nH]ccc2c1" bucket 3

Another compound to check: "Brc1cccc(B2OCCNCCO2)c1" bucket 2

Another compound to check: "CC1(C)COB(c2cccc(OC(F)(F)F)c2)OC1" bucket 1

Another compound to check: "CN(C)C(=O)c1ccc(B(O)O)cc1" bucket 3

Another compound to check: "CC1(C)COB(c2cccc(F)c2)OC1" bucket 3

Another compound to check: "CC1(C)COB(c2cccc(C(F)(F)F)c2)OC1" bucket 2

Another compound to check: "CC1(C)OB(c2ccc(Cl)s2)OC1(C)C" bucket 1

Another compound to check: "CC1(C)OB(c2cccc(Br)c2)OC1(C)C" bucket 1

Another compound to check: "Clc1cccc(B2OCCNCCO2)c1" bucket 2

Another compound to check: "CC1(C)COB(c2ccc(Cl)s2)OC1" bucket 1

Another compound to check: "COc1ccc(Cl)cc1B1OCC(C)(C)CO1" bucket 3

Another compound to check: "Cc1csc(B2OCCNCCO2)c1" bucket 3

Another compound to check: "CC1(C)COB(c2cc(Cl)cc(Cl)c2)OC1" bucket 3

Another compound to check: "Fc1cccc(B2OCCNCCO2)c1" bucket 3

Another compound to check: "FC(F)(F)Oc1cccc(B2OCCNCCO2)c1" bucket 1

Another compound to check: "CC1(C)OB(c2cc(Cl)cc(Cl)c2)OC1(C)C" bucket 3
